# experimental target: T1, Human OX40 (Sino Biological Inc) (human, UniProt P43489 29-216, limits assumed)
# T1 construct: Bought soluble protein used as SPR analyte; also called huOX40
# T1 sequence: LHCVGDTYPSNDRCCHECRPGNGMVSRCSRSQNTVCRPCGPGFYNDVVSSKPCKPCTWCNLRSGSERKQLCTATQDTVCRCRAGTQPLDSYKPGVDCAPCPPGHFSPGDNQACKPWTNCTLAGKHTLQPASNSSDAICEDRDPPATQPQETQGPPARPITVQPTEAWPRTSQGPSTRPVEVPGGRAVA
# method description: SPR (Biacore), antibody captured via anti-human Fc, huOX40 analyte
property measured: koff (s⁻¹)
Give just the number in s⁻¹; leave the unit off.

1A7.gr.5′ (antibody, V domains shown, human Fc) VH: EVQLVQSGAEVKKPGASVKVSCKASGYTFTDSYMSWVRQAPGQGLEWIGDMYPDNGDSSYNQKFRERVTLTVDTSTSTAYLELSSLRSEDTAVYYCVLAPRWYFSVWGQGTLVTVSS VL: DIQMTQSPSSLSASVGDRVTITCRASQDISNYLNWYQQKPGKTVKLLIYYTSRLRSGVPSRFSGSGSGTDFTLTISSLQPEDFATYYCQQGHTLPPTFGQGTKVEIK    0.000492

// next item, koff requested
3C8.gr.3 (antibody, V domains shown, human Fc) VH: EVQLVQSGAEVKKPGASVKVSCKASGYAFTNYLIEWVRQAPGQGLEWIGVINPGSGDTYYSEKFKGRVTLTADTSTSTAYLELSSLRSEDTAVYYCARDRLDYWGQGTLVTVSS VL: DIQMTQSPSSLSASVGDRVTITCHASQDISSYIVWYQQKPGKAPKLLIYHGTNLEDGVPSRFSGSGSGTDFTLTISSLQPEDFATYYCVHYAQFPYTFGQGTKVEIK has a reported koff of 0.00196
